Origin of the recorded values: PubChem BioAssay AID1159580

# protocol.notes: chemical genetic growth profiling, strain panel (AID 1159580);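 further: tested at 20 µM; growth read once vehicle control cultures reached saturation at 30 °C; 1 = growth at the plate median or of vehicle wells; lower values mean less growth of the strain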
# measurement.setup: S. cerevisiae deletion strains, growth OD, locus YLR418C, strain cdc73, stronger effect = lower value
Among all 5,500 compounds or so, about 2,000 (36%) were called active. Another 18% or so got no clear call; they are omitted. The list shows a part of the results.
normalized growth: recorded values

Here is how some compounds turned out for normalized growth.
COP(=S)(OC)SCn1nnc2ccccc2c1=O :: 0.985 (inactive)
CC1(C)C=Cc2c(cc3occ(-c4ccc5c(c4)OCO5)c(=O)c3c2O)O1 :: 1.02 (inactive)
CSCCC(NC=O)C(=O)NC(CC(C)C)C(=O)NC(Cc1ccccc1)C(=O)O (configuration not stated) :: 0.998 (inactive)
CNC(=O)CSP(=S)(OC)OC :: 1.01 (inactive)
COc1cc(O)c(C(=O)O)c(O)c1 :: 1.01 (inactive)
CN1Cc2c(N)cccc2C(c2ccccc2)C1 (configuration not stated) :: 1.01 (inactive)

Okay, now this compound:
Briefly, normalized growth measured for CC(=O)OCC(=O)[C@@]1(O)CCC2C3CCC4=CC(=O)CC[C@]4(C)[C@@]3(F)[C@@H](O)C[C@@]21C (some centres not stated) : 1.01 (inactive)

* * *

# protocol.notes: chemical genetic growth profiling, strain panel (AID 1159580);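 further: tested at 20 µM; growth read once vehicle control cultures reached saturation at 30 °C; 1 = growth at the plate median or of vehicle wells; lower values mean less growth of the strain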
# measurement.setup: S. cerevisiae deletion strains, growth OD, locus YCR088W, strain abp1, stronger effect = lower value
Hit rate of the full screen: of about 5,500 compounds, about 2,000 (36%) were called active. Inconclusive results (about 18%) are left out. This is one part of the list.
endpoint: normalized growth
Hey, just send me the number, nothing else.

Recorded results for 5 molecules are shown here.
O=c1[nH]cnc2nc[nH]c12 :: 1.02
COc1cc2ccc(=O)oc2c2ccoc12 :: 1.01
CCCCCN=C(N)N/N=C\c1c[nH]c2ccc(OC)cc12 :: 1.02
Cn1c(=O)[nH]c(=O)c2[nH]cnc21 :: 0.988
COc1ccc(Cc2nccc3cc(OC)c(OC)cc23)cc1OC :: 1.01

molecule CN1CCN(C(c2ccccc2)c2ccccc2)CC1 , normalized growth observed: 0.983

Note to self: normalized growth recorded for CC(C(=O)O)c1ccc(N2Cc3ccccc3C2=O)cc1 (stereo not drawn) was 0.987

* * *

# protocol.notes: chemical genetic growth profiling, strain panel (AID 1159580);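 further: tested at 20 µM; growth read once vehicle control cultures reached saturation at 30 °C; 1 = growth at the plate median or of vehicle wells; lower values mean less growth of the strain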
# measurement.setup: S. cerevisiae deletion strains, growth OD, locus YDR195W, strain ref2
Out of some 5,500 compounds screened, about 2,000 (36%) were called active. Not shown: some 18% with an inconclusive outcome. Cut-off read from the data, not from the text of the source: active = normalized growth mostly below about 0.91 (no sharp cut-off); inconclusive = no clear call, values can overlap the other calls; inactive = mostly above about 0.92. Some of the results follow.
Can you answer with just one of these options? active, inactive

Solved entries (count: 5):
O=c1c(-c2ccc3c(c2)OCO3)coc2cc(O)ccc12 :: inactive
N#Cc1ccc2c(c1)N(CCCN1CCC(O)CC1)c1ccccc1S2 :: inactive
CN(C)c1nc(N(C)C)nc(N(C)C)n1 :: inactive
c1coc(CNc2ncnc3nc[nH]c23)c1 :: inactive
CC(=O)OC1CCC23C(=O)OC45CCC(C6=CC(=O)OC6)C4(C)CCC2C5CCC3(O)C1 (configuration not stated) :: inactive

# fetch the recorded call for O=C(O)c1cccc(O)c1O here
inactive

So what was the verdict on COC(=O)C1=CO[C@@H](O[C@@H]2O[C@H](CO)[C@@H](O)[C@H](O)[C@H]2O)[C@@H]2[C@@H](C)[C@@H](O)C[C@H]12 in this test?
inactive

I would be grateful if you could indicate the recorded call for COP(=S)(OC)SCn1nnc2ccccc2c1=O .
inactive

Please let me know the test result on file for CCCCC(=O)O[C@H]1CCC2C3CCc4cc(O)ccc4C3CC[C@@]21C (some centres not stated) .
inactive

Could you please tell me the result logged for Nc1ncnc2nc[nH]c12 in this assay?
inactive

Give the logged outcome of this assay for the following molecule: CC(=O)c1ccc2c(c1)N(CCCN(C)C)c1ccccc1S2
inactive
